meta.source: paper PMC7952708

- target: OpuAC (substrate-binding domain of OpuA) (Lactococcus lactis, UniProt Q7DAU8, D320C/K453C)
- Sequence (Q7DAU8 320-573 D320C/K453C): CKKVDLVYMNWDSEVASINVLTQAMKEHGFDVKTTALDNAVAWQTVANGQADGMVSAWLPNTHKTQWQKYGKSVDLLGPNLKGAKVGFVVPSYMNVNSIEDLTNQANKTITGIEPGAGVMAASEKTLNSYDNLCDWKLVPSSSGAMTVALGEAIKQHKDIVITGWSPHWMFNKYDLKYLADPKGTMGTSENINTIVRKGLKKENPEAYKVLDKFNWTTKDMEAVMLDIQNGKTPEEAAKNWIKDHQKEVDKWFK
- protocol description: solution-based ALEX single-molecule FRET titration
metric: Kd

Query C[N+](C)(C)CC(=O)[O-] yields Kd of 1000 to 4000 nM

###

- target: OpuAC (substrate-binding domain of OpuA) (Lactococcus lactis, UniProt Q7DAU8, K521C/T504C)
- Sequence (Q7DAU8 320-573 T504C/K521C): as the sequence (Q7DAU8 320-573 D320C/K453C) above, with C1D, C134K, T185C, K202C counted along it
- protocol description: solution-based ALEX single-molecule FRET titration
metric: pKd
To interpret pKd, take it as minus log10 of a concentration measured in moles per litre.

The reported pKd of the compound C[N+](C)(C)CC(=O)[O-] [glycine betaine] was 4.42
